# measured on: Tyrosine-protein kinase FRK (Homo sapiens) (UniProt P42685)
# Sequence (P42685 whole entry): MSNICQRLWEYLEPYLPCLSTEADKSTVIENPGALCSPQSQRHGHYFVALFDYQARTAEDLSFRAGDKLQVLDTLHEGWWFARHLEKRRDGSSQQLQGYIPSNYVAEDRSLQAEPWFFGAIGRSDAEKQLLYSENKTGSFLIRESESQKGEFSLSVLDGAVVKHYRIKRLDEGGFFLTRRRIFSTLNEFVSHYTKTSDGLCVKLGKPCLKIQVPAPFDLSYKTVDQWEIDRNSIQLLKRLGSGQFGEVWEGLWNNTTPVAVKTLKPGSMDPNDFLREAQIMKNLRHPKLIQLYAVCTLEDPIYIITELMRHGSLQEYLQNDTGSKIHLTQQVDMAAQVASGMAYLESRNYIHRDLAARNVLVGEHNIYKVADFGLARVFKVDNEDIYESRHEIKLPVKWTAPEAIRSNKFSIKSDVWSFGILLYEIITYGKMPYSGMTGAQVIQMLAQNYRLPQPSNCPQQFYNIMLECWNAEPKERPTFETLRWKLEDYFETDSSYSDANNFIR
# test settings: at 1 µM;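 note: reported percent inhibition is a mean value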
Form field: inhibition (one value per entry).

- compound: "COc1cccc(-n2cnc3c(N/N=C/c4ccncc4)ncnc32)c1"
  value units: "%"
  inhibition: 0.9
- compound: "CN(C)CCOc1ccc(-c2cc(-c3ccc4c(c3)CCC4=NO)c(-c3ccncc3)o2)cc1"
  value units: "%"
  inhibition: 0.49
- compound: "CS(=O)(=O)CCNCc1ccc(-c2ccc3ncnc(Nc4ccc(OCc5ccccc5)c(Br)c4)c3c2)o1"
  value units: "%"
  inhibition: 3.25
- compound: "COc1cc(Nc2ncc3c(C)nc(-c4cccc(C(F)(F)F)c4)n3n2)cc(OC)c1OC"
  value units: "%"
  inhibition: 0.31
- compound: "CCN(CC)Cc1ccc(Nc2nccc(-c3cnn4ncccc34)n2)cc1"
  value units: "%"
  inhibition: 3.76
- compound: "O=C(Nc1n[nH]c2nc(-c3ccco3)ccc12)C1CC1"
  value units: "%"
  inhibition: 1.05
- compound: "N#Cc1ccc(Oc2nccc(-c3c(-c4ccc(F)cc4)ncn3C3CCNCC3)n2)cc1"
  value units: "%"
  inhibition: 4.03
- compound: "FC(F)(F)c1cccc(Nc2nccc(-c3cnn4nc(-c5ccccc5)ccc34)n2)c1"
  value units: "%"
  inhibition: 0.8
- compound: "Fc1ccc(-c2nc3n(c2-c2ccncc2)CCS3)cc1"
  value units: "%"
  inhibition: 3.19
- compound: "NC(=O)c1cc(-c2ccc(F)cc2)cc(-c2ccncc2)c1N"
  value units: "%"
  inhibition: 1.82
- compound: "NC(=O)Cc1ccccc1Oc1nccc(-c2c(-c3ccc(F)cc3)ncn2C2CCNCC2)n1"
  value units: "%"
  inhibition: 3.64
- compound: "COc1ccc2ncn(-c3cc(O[C@H](C)c4ccccc4Cl)c(C(N)=O)s3)c2c1"
  value units: "%"
  inhibition: 4.73
- compound: "O=C1Nc2ccc(I)cc2C1=Cc1cc(Br)c(O)c(Br)c1"
  value units: "%"
  inhibition: 4.15
- compound: "O=C(Nc1n[nH]c2nc(-c3ccc(O)cc3)c(Br)cc12)C1CC1"
  value units: "%"
  inhibition: 2.41
- compound: "COc1cc2ncn(-c3cc(OCCc4ccccc4)c(C(N)=O)s3)c2cc1OC"
  value units: "%"
  inhibition: 1.86
- compound: "CN(C)c1ccc2c(c1)/C(=C/Nc1ccc(S(N)(=O)=O)cc1)C(=O)N2"
  value units: "%"
  inhibition: 2.09
- compound: "CCS(=O)(=O)c1ccc(OC)c(Nc2ncc(-c3ccccc3Cl)o2)c1"
  value units: "%"
  inhibition: 4.99
- compound: "COc1cc2ncn(-c3cc(OCc4cccs4)c(C(N)=O)s3)c2cc1OC"
  value units: "%"
  inhibition: 1.32
- compound: "Cc1ccc(C(=O)NC2CCC2)cc1-c1ccc(C(=O)NCC2CC2)cc1"
  value units: "%"
  inhibition: 0.56
- compound: "COc1cc(C)c(N(C)C(=O)CN(C)C)cc1Nc1nc(Nc2cccc(F)c2C(N)=O)c2cc[nH]c2n1"
  value units: "%"
  inhibition: 1.16
- compound: "Clc1ccc(CNc2nccc(-c3cnn4ncccc34)n2)cc1"
  value units: "%"
  inhibition: 1.32
- compound: "Cc1ccc(NC(=O)c2ccoc2)cc1-c1ccc(C(=O)NCC2CC2)cc1"
  value units: "%"
  inhibition: 2.51
- compound: "Fc1ccc(-c2c(-c3ccncc3)nc3n2CCS3)cc1"
  value units: "%"
  inhibition: 2.05
- compound: "NS(=O)(=O)c1ccc(N/N=C2\\C(=O)Nc3ccc(C(=O)NCCCn4ccnc4)cc32)cc1"
  value units: "%"
  inhibition: 2.76
- compound: "Nc1nccc(-c2c(-c3ccc(F)cc3)ncn2C2CCC(O)CC2)n1 (stereo not given)"
  value units: "%"
  inhibition: 5.08
- compound: "COc1cc(Nc2ncc(-c3ccccc3)o2)cc(OC)c1OC"
  value units: "%"
  inhibition: 4.26
- compound: "COC(=O)Nc1nc2ccc(Sc3ccc(NC(=O)Nc4cc(C(F)(F)F)ccc4F)cc3)cc2[nH]1"
  value units: "%"
  inhibition: 0.7
- compound: "CNC(=O)c1cncc(/C=C/c2c(C)cccc2C)c1"
  value units: "%"
  inhibition: 17.3
- compound: "Cc1nnc(-c2ccc(C)c(-c3ccc(C(=O)NCc4ccc(Cl)cc4)cc3)c2)o1"
  value units: "%"
  inhibition: 2.43
- compound: "C/C(Nc1ccc(S(N)(=O)=O)cc1)=C1/C(=O)Nc2ccccc21"
  value units: "%"
  inhibition: 0.76
- compound: "C[C@@H](Oc1cc(-n2cnc3ccc(OCC4CCN(C)CC4)cc32)sc1C(N)=O)c1ccccc1Cl"
  value units: "%"
  inhibition: 3.93
- compound: "Fc1ccc(-c2ncn(CCCN3CCOCC3)c2-c2ccncc2)cc1"
  value units: "%"
  inhibition: -1.57
- compound: "COc1cc(N2CCN(C(C)C)CC2)ccc1Nc1nc(Nc2ccc(F)cc2C(=O)NC[C@@H](O)CO)c2cc[nH]c2n1"
  value units: "%"
  inhibition: 4.03
- compound: "O=C(Nc1n[nH]c2cc(-c3ccccc3)ccc12)C1CC1"
  value units: "%"
  inhibition: 2.17
- compound: "C#Cc1cccc(Nc2ncnc3ccc(OCCCCNCCS(C)(=O)=O)cc23)c1"
  value units: "%"
  inhibition: 4.16
- compound: "CCS(=O)(=O)c1ccc(OC)c(Nc2ncc(-c3cccc(-c4ccccc4F)c3)o2)c1"
  value units: "%"
  inhibition: 11.7
- compound: "O=C(Nc1ccc(Oc2ccc3[nH]c(NC(=O)c4ccccc4)nc3c2)cc1)Nc1cc(C(F)(F)F)ccc1F"
  value units: "%"
  inhibition: 2.1
- compound: "CS(=O)(=O)CCNCc1cc(-c2cc3c(Nc4ccc(OCc5cccc(F)c5)c(Cl)c4)ncnc3s2)cs1"
  value units: "%"
  inhibition: 3.68
- compound: "NS(=O)(=O)c1ccc(Nc2cc(-c3ccc(O)c(F)c3)n[nH]2)cc1"
  value units: "%"
  inhibition: 0.93
- compound: "c1ccc(Oc2ccc(Nc3ncc(-c4ccccc4)o3)cc2)cc1"
  value units: "%"
  inhibition: 1.21
